B1: tRNA (parent)
chain: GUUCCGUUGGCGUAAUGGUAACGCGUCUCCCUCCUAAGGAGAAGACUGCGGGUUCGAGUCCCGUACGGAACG

variants of: B1; experiment: yeast fitness relative to wild type (ratio to wild type); higher = fitter; tRNA-Arg(CCU), competitive growth, 37 C, YPD
This sample holds only a part of the variants without activity.
measured.quantity: yeast fitness

1) A36U A65U G67A A70G; ≤ 0.5
2) C5G C34G C61A; ≤ 0.5
3) U3C C30U C55U G58A; ≤ 0.5
4) A21U C22G A69U; 0.613
5) C11A A42G A43U C46U G67A A69C; ≤ 0.5
6) C22A A45C C66G; 0.691
7) G23C G56A; 0.566
8) A20U A43C U54C; ≤ 0.5
9) A14U C24G U26G; ≤ 0.5
10) U7A C29A G58A C61G A70U; 0.665
11) U8A C33U G67A; ≤ 0.5
12) A15C A21G C22U A43U A57U; ≤ 0.5
